target: Glucocorticoid receptor (Homo sapiens); assay: Modulation of glucocorticoid receptor (unknown origin) transfected in human HeLa cells assessed as transrepression by measuring inhibition of TNF-alpha induced NF-kappaB signalling incubated for 18 hrs by dual-luciferase reporter based assay; format: cell-based
pIC50: −log10 of the molar value.
Quantity: pIC50

Consider the worked cases shown below.
O=C(c1ccco1)N1CCCc2cc(N(S(=O)(=O)c3ccc(-c4ccccc4)cc3)S(=O)(=O)c3ccc(-c4ccccc4)cc3)ccc21 ... 7.15
COc1ccc(S(=O)(=O)N(c2ccc3c(c2)CCCN3C(=O)c2ccco2)S(=O)(=O)c2ccc(OC)cc2)cc1 ... 6.55
CN(C)c1cccc2c(S(=O)(=O)Nc3ccc4c(c3)CCCN4C(=O)c3ccco3)cccc12 ... 6.68

a: O=C(c1ccco1)N1CCCc2cc(NS(=O)(=O)c3ccc(Cl)c([N+](=O)[O-])c3)ccc21
b: COc1cc(C)c(C)cc1S(=O)(=O)Nc1ccc2c(c1)CCCN2C(=O)C1CC1
c: COc1cc(C)c(Cl)cc1S(=O)(=O)Nc1ccc2c(c1)CCCN2C(=O)c1ccncc1
d: COc1cc(C)c(C)cc1S(=O)(=O)Nc1ccc2c(c1)CCCN2C(=O)C1CCCCC1
Query: // smallest pIC50 at index 0, largest at the end Kindly provide the labels arranged according to the requested ordering.
Reply: d, a, b, c

* * *

biological target: Glucocorticoid receptor (Homo sapiens, UniProt P04150); experiment: Binding affinity to glucocorticoid receptor (unknown origin) by Lanthascreen TR-FRET competition binding assay
Sequence (P04150 whole entry): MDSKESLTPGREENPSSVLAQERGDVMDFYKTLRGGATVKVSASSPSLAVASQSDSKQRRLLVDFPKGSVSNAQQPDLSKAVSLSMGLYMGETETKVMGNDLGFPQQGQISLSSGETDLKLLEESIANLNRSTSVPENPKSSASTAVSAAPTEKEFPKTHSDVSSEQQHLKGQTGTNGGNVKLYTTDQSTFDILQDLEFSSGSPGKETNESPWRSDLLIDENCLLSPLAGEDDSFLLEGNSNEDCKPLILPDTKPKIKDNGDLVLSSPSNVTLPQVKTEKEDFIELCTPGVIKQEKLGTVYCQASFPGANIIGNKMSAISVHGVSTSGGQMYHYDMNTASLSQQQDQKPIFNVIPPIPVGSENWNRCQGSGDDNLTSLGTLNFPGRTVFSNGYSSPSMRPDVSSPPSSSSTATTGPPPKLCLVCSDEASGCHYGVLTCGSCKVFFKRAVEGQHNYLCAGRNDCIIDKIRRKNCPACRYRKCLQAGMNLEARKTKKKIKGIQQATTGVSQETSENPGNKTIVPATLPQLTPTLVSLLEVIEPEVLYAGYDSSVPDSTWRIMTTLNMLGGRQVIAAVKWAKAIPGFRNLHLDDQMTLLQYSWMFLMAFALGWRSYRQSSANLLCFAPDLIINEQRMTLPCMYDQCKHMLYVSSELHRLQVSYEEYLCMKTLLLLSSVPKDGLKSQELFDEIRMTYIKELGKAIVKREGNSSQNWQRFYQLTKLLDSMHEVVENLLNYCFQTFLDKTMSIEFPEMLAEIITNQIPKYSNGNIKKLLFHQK
pIC50: −log10 of the molar value.
Quantity: pIC50

COc1cc(C)c(Cl)cc1S(=O)(=O)Nc1ccc2c(c1)N(C(=O)c1ccco1)CCC2 ... < 4.30
O=C(c1ccco1)N1CCCc2cc(N(S(=O)(=O)c3ccc(Cl)cc3)S(=O)(=O)c3ccc(Cl)cc3)ccc21 ... < 4.30
COc1cc(C)c(Cl)cc1S(=O)(=O)Nc1ccc2c(c1)CCCN2C(=O)c1ccc2ccccc2c1 ... 5.48
CN(C)c1cccc2c(S(=O)(=O)Nc3ccc4c(c3)CCCN4C(=O)c3ccco3)cccc12 ... < 4.30
COc1cc(C)c(Cl)cc1S(=O)(=O)Nc1ccc2c(c1)CCCN2C(=O)N(C)C ... 5.56

Query: Quick one: pIC50 for COc1cc(C)c(Cl)cc1S(=O)(=O)Nc1ccc2c(c1)CCCN2C(=O)c1cccs1 ?
Reply: 5.94

Query: // query pIC50 value for entry O=C(c1ccco1)N1CCCc2cc(N(S(=O)(=O)c3ccccc3)S(=O)(=O)c3ccccc3)ccc21
Reply: < 4.30

Query: Using the record for O=C(c1ccco1)N1CCCc2cc(N(S(=O)(=O)c3ccc([N+](=O)[O-])cc3)S(=O)(=O)c3ccc([N+](=O)[O-])cc3)ccc21 , report its pIC50.
Reply: < 4.30

* * *

target: Glucocorticoid receptor (Homo sapiens, UniProt P04150); assay: Modulation of glucocorticoid receptor (unknown origin) transfected in human HeLa cells assessed as transrepression by measuring inhibition of PMA-induced AP-1 signalling incubated for 18 hrs by dual-luciferase reporter based assay; type: cell-based
Quantity: IC50 (µM)

a: COC(=O)c1ccc(C(=O)N2CCCc3cc(NS(=O)(=O)c4cc(Cl)c(C)cc4OC)ccc32)cc1
b: COc1cc(C)c(Cl)cc1S(=O)(=O)Nc1ccc2c(c1)CCCN2C(=O)c1ncccn1
Query: Choose between a and b : whose measured IC50 value is numerically larger? Label of pick, please.
Reply: a
